Tested on: Candida albicans
testSummary: Antifungal activity against Candida albicans ATCC SC5314 assessed as change in lanosterol level at 4 ug/ml incubated for 48 hrs by LC-MS analysis (reference value: 3.7%)
Type: functional
measurementParameters: dose 4 µg/ml
Below, each entry is listed alongside its reported Activity.
// return numeric value only (unit: %, not printed)

- structure: "CC(C)[C@H](NC(=O)c1cccc2c1OCCO2)C(=O)N[C@@H](Cn1cncn1)c1ccccc1"
  Activity / %: 16.4
- structure: "CN(C/C=C/c1ccccc1)Cc1cccc2ccccc12"
  Activity / %: 2.6
- structure: "OC(Cn1cncn1)(Cn1cncn1)c1ccc(F)cc1F"
  Activity / %: 21.6

Let us move to another entry and its Activity.
Name the recorded Activity for O=C(N[C@H](Cc1ccccc1)Cn1cncn1)c1ccc2c(c1)OCCO2 .
18.5

====

System: Candida albicans
testSummary: Antifungal activity against Candida albicans ATCC 10231 assessed as fungal growth inhibition measured after 72 hrs by CLSI protocol based liquid medium dilution method
Type: functional
valueKind: MIC50 (µg/mL)
// return numeric value only (unit: µg/mL, not printed)

Worked cases, MIC50 given:
- compound: "CC(C)[C@H](NC(=O)c1ccc2c(c1)OCCO2)C(=O)N[C@@H](Cn1cncn1)c1ccccc1"
  valueKind: "MIC50"
  numericReadout: 0.25
- compound: "O=C(N[C@H](Cc1ccccc1)Cn1cncn1)c1ccc2c(c1)OCCO2"
  valueKind: "MIC50"
  numericReadout: 0.25
- compound: "CCC(C)[C@H](NC(=O)c1ccc2c(c1)OCCO2)C(=O)Nc1ccncc1 (stereo partly specified)"
  valueKind: "MIC50"
  numericReadout: 0.5
- compound: "OC(Cn1cncn1)(Cn1cncn1)c1ccc(F)cc1F"
  valueKind: "MIC50"
  numericReadout: 0.25
- compound: "CCC(C)[C@H](NC(=O)c1ccc2c(c1)OCCO2)C(=O)Nc1cccnc1 (stereo partly specified)"
  valueKind: "MIC50"
  numericReadout: 0.5

Let us move to another entry and its MIC50.
Name the recorded MIC50 for O=C(N[C@@H](Cn1ccnc1)c1ccccc1)c1cccc2c1OCCO2 .
0.5

====

Below, each entry is listed alongside its reported MIC50.
Test system: Candida albicans
testSummary: Antifungal activity against fluconazole resistant Candida albicans strain 901 assessed as fungal growth inhibition measured after 72 hrs by CLSI protocol based liquid medium dilution method
Format: functional
// return numeric value only (unit: µg/mL, not printed)

Worked cases, MIC50 given:
- molecule: "CCC(C)[C@H](NC(=O)c1ccc2c(c1)OCCO2)C(=O)N[C@@H](Cn1ccnc1)c1ccccc1 (stereo not given in full)"
  testSystem: "Candida albicans"
  MIC50 [µg/mL]: 2
- molecule: "CC(C)[C@H](NC(=O)c1cccc2c1OCCO2)C(=O)N[C@@H](Cn1cncn1)c1ccccc1"
  testSystem: "Candida albicans"
  MIC50 [µg/mL]: 1
- molecule: "O=C(N[C@H](Cc1ccccc1)Cn1cncn1)c1ccc2c(c1)OCCO2"
  testSystem: "Candida albicans"
  MIC50 [µg/mL]: 1

Let us move to another entry and its MIC50.
Look up MIC50 with Candida albicans for this molecule: CN(C/C=C/c1ccccc1)Cc1cccc2ccccc12 [NAFTIFINE]
2

====

Below, each entry is listed alongside its reported IC50.
testSystem: Squalene epoxidase ERG1 (Candida albicans, UniProt Q92206)
Sequence (Q92206 whole entry): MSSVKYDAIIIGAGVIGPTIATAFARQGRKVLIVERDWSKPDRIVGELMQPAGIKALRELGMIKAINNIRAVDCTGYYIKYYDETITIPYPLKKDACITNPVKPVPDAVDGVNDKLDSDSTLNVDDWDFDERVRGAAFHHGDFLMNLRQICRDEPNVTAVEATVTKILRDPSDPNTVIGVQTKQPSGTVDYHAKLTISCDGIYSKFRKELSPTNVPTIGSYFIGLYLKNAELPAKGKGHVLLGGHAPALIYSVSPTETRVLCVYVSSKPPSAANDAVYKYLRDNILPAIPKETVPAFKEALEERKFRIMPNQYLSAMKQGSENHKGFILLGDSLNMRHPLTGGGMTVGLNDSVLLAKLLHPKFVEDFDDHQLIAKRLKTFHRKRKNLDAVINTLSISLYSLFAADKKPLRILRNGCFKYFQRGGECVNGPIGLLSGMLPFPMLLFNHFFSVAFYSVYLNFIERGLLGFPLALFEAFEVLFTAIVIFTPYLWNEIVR
testSummary: Inhibition of SE in Candida albicans ATCC SC5314 incubated for 30 mins using squalene as substrate in presence of NADPH by spectrophotometer analysis
// return numeric value only (unit: nM, not printed)

Worked cases, IC50 given:
- structure: "CN(C/C=C/c1ccccc1)Cc1cccc2ccccc12"
  outputUnit: "nM"
  IC50: 317
- structure: "O=C(N[C@H](Cc1ccccc1)Cn1cncn1)c1ccc2c(c1)OCCO2"
  outputUnit: "nM"
  IC50: 823

Look up IC50 with Squalene epoxidase ERG1 (Candida albicans, UniProt Q92206) for this molecule: CC(C)[C@H](NC(=O)c1cccc2c1OCCO2)C(=O)N[C@@H](Cn1cncn1)c1ccccc1
621

====

System: Candida albicans
testSummary: Antifungal activity against Candida albicans ATCC 10231 assessed as fungal growth inhibition measured after 72 hrs by CLSI protocol based liquid medium dilution method
Format: functional
Below, each entry is listed alongside its reported MIC50.
// return numeric value only (unit: µg/mL, not printed)

Worked cases, MIC50 given:
- compound: "O=C(N[C@@H](Cn1cncn1)c1ccccc1)c1ccc2c(c1)OCCO2"
  MIC50 / µg/mL: 0.125
- compound: "CC(C)[C@H](NC(=O)c1ccc2c(c1)OCCO2)C(=O)Nc1ccncc1"
  MIC50 / µg/mL: 0.5
- compound: "CCC(C)[C@H](NC(=O)c1ccc2c(c1)OCCO2)C(=O)N[C@@H](Cn1cncn1)c1ccccc1 (stereo not given in full)"
  MIC50 / µg/mL: 0.25
- compound: "CC(C)[C@H](NC(=O)c1ccc2c(c1)OCCO2)C(=O)N[C@@H](Cn1ccnc1)c1ccccc1"
  MIC50 / µg/mL: 0.25
- compound: "CCC(C)[C@H](NC(=O)c1ccc2c(c1)OCCO2)C(=O)N[C@@H](Cn1ccnc1)c1ccccc1 (stereo not given in full)"
  MIC50 / µg/mL: 0.125
- compound: "O=C(N[C@@H](Cn1ccnc1)c1ccccc1)c1ccc2c(c1)OCCO2"
  MIC50 / µg/mL: 0.25
- compound: "O=C(N[C@H](Cc1ccccc1)Cn1ccnc1)c1cccc2c1OCCO2"
  MIC50 / µg/mL: 0.5
- compound: "CC(C)[C@H](NC(=O)c1cccc2c1OCCO2)C(=O)Nc1ccncc1"
  MIC50 / µg/mL: 0.5

Name the recorded MIC50 for CCC(C)[C@H](NC(=O)c1cccc2c1OCCO2)C(=O)N[C@@H](Cn1cncn1)c1ccccc1 (stereo not given in full) .
0.125

Name the recorded MIC50 for CC(C)[C@H](NC(=O)c1ccc2c(c1)OCCO2)C(=O)Nc1cccnc1 .
0.25

Name the recorded MIC50 for O=C(N[C@H](Cc1ccccc1)Cn1ccnc1)c1ccc2c(c1)OCCO2 .
0.5

Name the recorded MIC50 for O=C(N[C@@H](Cn1cncn1)c1ccccc1)c1cccc2c1OCCO2 .
0.125

Name the recorded MIC50 for CC(C)[C@H](NC(=O)c1cccc2c1OCCO2)C(=O)N[C@@H](Cn1ccnc1)c1ccccc1 .
0.25

Name the recorded MIC50 for O=C(N[C@H](Cc1ccccc1)Cn1cncn1)c1cccc2c1OCCO2 .
0.25

Name the recorded MIC50 for CN(C/C=C/c1ccccc1)Cc1cccc2ccccc12 [NAFTIFINE] .
0.5

Name the recorded MIC50 for CC(C)[C@H](NC(=O)c1cccc2c1OCCO2)C(=O)N[C@@H](Cn1cncn1)c1ccccc1 .
0.125

Name the recorded MIC50 for CC(C)[C@H](NC(=O)c1cccc2c1OCCO2)C(=O)Nc1cccnc1 .
0.5

Name the recorded MIC50 for CCC(C)[C@H](NC(=O)c1cccc2c1OCCO2)C(=O)Nc1ccncc1 (stereo not given in full) .
1

Name the recorded MIC50 for CCC(C)[C@H](NC(=O)c1cccc2c1OCCO2)C(=O)N[C@@H](Cn1ccnc1)c1ccccc1 (stereo not given in full) .
0.5

Name the recorded MIC50 for CCC(C)[C@H](NC(=O)c1cccc2c1OCCO2)C(=O)Nc1cccnc1 (stereo not given in full) .
0.5

====

Tested on: Candida albicans
testSummary: Induction of apoptosis in Candida albicans ATCC SC5314 cells assessed as live cells at 8 ug/ml incubated for 72 hrs by Annexin V-FITC/PI staining based flow cytometry method (reference value: 95.56%)
Assay type: functional
measurementParameters: dose 8 µg/ml
Below, each entry is listed alongside its reported Activity.
Write your answer as a measured quantity: the number, then the unit.

- molecule: "OC(Cn1cncn1)(Cn1cncn1)c1ccc(F)cc1F [FLUCONAZOLE]"
  Activity: "76.56%"
- molecule: "CN(C/C=C/c1ccccc1)Cc1cccc2ccccc12 [NAFTIFINE]"
  Activity: "61.6%"
- molecule: "O=C(N[C@H](Cc1ccccc1)Cn1cncn1)c1ccc2c(c1)OCCO2"
  Activity: "52.17%"

Look up Activity with Candida albicans for this molecule: CC(C)[C@H](NC(=O)c1cccc2c1OCCO2)C(=O)N[C@@H](Cn1cncn1)c1ccccc1
54.5%
